Origin of values: the supplement of paper PMC12042874

Experiment: amyloid nucleation score (Sup35N fusion, yeast selection) (log enrichment); library NNK1; higher = more nucleation; inactive = no reads after selection;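 note: zero at mode of non-aggregating sequences after 7 days selection at 30°C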
Values of amyloid nucleation score greater than or equal to 0.6 map to Criterion met; values below map to Criterion not met.

Recorded results for 5 substances are shown here.
VSYYCAQALVLRIPEEWATE	Criterion not met
GDRRLSVLGPYMARSVWGER	Criterion not met
LRHFCGTFAAVTRKRVYPLS	Criterion not met
VRCLLRYLLLESPQFINV	Criterion met
LELSKTISMPVSMNRFWVIR	Criterion not met

Incoming: Could you verify whether the entry GKLSDINCLYSSDSLGCLGL shows amyloid nucleation score of no less than 0.6?
Outgoing: Criterion met

Incoming: Could you verify whether the entry ELVISMGRLWVG shows amyloid nucleation score of no less than 0.6?
Outgoing: Criterion met

Incoming: Could you verify whether the entry NWGAISISDRGPQKTDTAWT shows amyloid nucleation score of no less than 0.6?
Outgoing: Criterion not met

Incoming: Could you verify whether the entry NIGIRI shows amyloid nucleation score of no less than 0.6?
Outgoing: Criterion not met

Incoming: Could you verify whether the entry GVVSKQSYVRITLGTGPSGE shows amyloid nucleation score of no less than 0.6?
Outgoing: Criterion not met

Incoming: Could you verify whether the entry HILSHFVSCSRYL shows amyloid nucleation score of no less than 0.6?
Outgoing: Criterion not met

Incoming: Could you verify whether the entry VMFYSLHFCGVEDFFTGAER shows amyloid nucleation score of no less than 0.6?
Outgoing: Criterion met

Incoming: Could you verify whether the entry QHTTVRFRTGDKRNQFLSSI shows amyloid nucleation score of no less than 0.6?
Outgoing: Criterion not met

Incoming: Could you verify whether the entry TDCSSLC shows amyloid nucleation score of no less than 0.6?
Outgoing: Criterion not met

Incoming: Could you verify whether the entry LYIMLLLLLLTSQYT shows amyloid nucleation score of no less than 0.6?
Outgoing: Criterion not met

Incoming: Could you verify whether the entry YPTYCLGCMS shows amyloid nucleation score of no less than 0.6?
Outgoing: Criterion met

Incoming: Could you verify whether the entry FKLMWNFQDLLVLLLRDRRY shows amyloid nucleation score of no less than 0.6?
Outgoing: Criterion not met

Incoming: Could you verify whether the entry TTSRAWFYL shows amyloid nucleation score of no less than 0.6?
Outgoing: Criterion not met

Incoming: Could you verify whether the entry TSSWDSPCYQEAVFIGGYYI shows amyloid nucleation score of no less than 0.6?
Outgoing: Criterion met

Incoming: Could you verify whether the entry TQIAESYLVQANNSAEATAA shows amyloid nucleation score of no less than 0.6?
Outgoing: Criterion not met

Incoming: Could you verify whether the entry SCMTLLRFKRMEDLK shows amyloid nucleation score of no less than 0.6?
Outgoing: Criterion met

Incoming: Could you verify whether the entry YFVHQNKHRTKIIILGLGLI shows amyloid nucleation score of no less than 0.6?
Outgoing: Criterion met

Incoming: Could you verify whether the entry WFEVNSACQLSNLGGLTEFR shows amyloid nucleation score of no less than 0.6?
Outgoing: Criterion not met

Incoming: Could you verify whether the entry CVCLKDPANLSAIGCRGESL shows amyloid nucleation score of no less than 0.6?
Outgoing: Criterion not met

---

Assay: amyloid nucleation score (Sup35N fusion, yeast selection) (log enrichment); library NNK3; higher = more nucleation; inactive = no reads after selection
Attribute measured: amyloid nucleation score

VMWPIGSCDRE	inactive
RIVNALTSCDLFSCGSVLRR	1.92
SGLDFAYLDECSREGSVYAG	inactive
DRRKAEFILTMGPEWYQQLN	inactive
YSKRAHVFYES	-0.06

Incoming: Requested read-out: amyloid nucleation score. Entry: ILLSVSWGAR
Outgoing: 1.49

Incoming: Requested read-out: amyloid nucleation score. Entry: TFDSYPFVKGGISWPNMKYL
Outgoing: inactive

Incoming: Requested read-out: amyloid nucleation score. Entry: FEYLLGKLCRLCSNAGRSLS
Outgoing: inactive

Incoming: Requested read-out: amyloid nucleation score. Entry: NRLCFISAMCNVTYWVICNH
Outgoing: inactive

Incoming: Requested read-out: amyloid nucleation score. Entry: QDWEMVN
Outgoing: inactive

Incoming: Requested read-out: amyloid nucleation score. Entry: NECYYLGRNWPYYGKSDMLL
Outgoing: 0.379

Incoming: Requested read-out: amyloid nucleation score. Entry: ITDYMIQF
Outgoing: -0.66

Incoming: Requested read-out: amyloid nucleation score. Entry: LLRSQASTATGYH
Outgoing: inactive

Incoming: Requested read-out: amyloid nucleation score. Entry: SRFKMICSRDRLNNRSVVLG
Outgoing: inactive

Incoming: Requested read-out: amyloid nucleation score. Entry: TVNYYRQNSIIMFESYNECC
Outgoing: 0.579

Incoming: Requested read-out: amyloid nucleation score. Entry: RLVFNLGGYFLKWCIDCFIR
Outgoing: inactive

Incoming: Requested read-out: amyloid nucleation score. Entry: FYFYSVCYYGRWIKKPCHLR
Outgoing: inactive

---

Assay: amyloid nucleation score (Sup35N fusion, yeast selection) (log enrichment); library NNK1; higher = more nucleation; inactive = no reads after selection
Values of amyloid nucleation score greater than or equal to -0.6 map to rule met; values below map to rule not met.

Recorded results for 3 substances are shown here.
VFDAKGLNAHFNEVNVVYIR	rule met
TVHVGTVPKFSYRFGIMGTE	rule met
FENIDLP	rule met

Incoming: Could you verify whether the entry HEPFDSDHTVARRETCLFGR shows amyloid nucleation score of no less than -0.6?
Outgoing: rule not met

Incoming: Could you verify whether the entry TPTSSIPTPPRFPALTC shows amyloid nucleation score of no less than -0.6?
Outgoing: rule not met

Incoming: Could you verify whether the entry LYVFHRRYYWANYDDRYPLP shows amyloid nucleation score of no less than -0.6?
Outgoing: rule met

Incoming: Could you verify whether the entry SNSNTIP shows amyloid nucleation score of no less than -0.6?
Outgoing: rule not met

Incoming: Could you verify whether the entry RVEFHGIR shows amyloid nucleation score of no less than -0.6?
Outgoing: rule met

---

Experiment: amyloid nucleation score (Sup35N fusion, yeast selection) (log enrichment); library NNK1; higher = more nucleation; inactive = no reads after selection
Values of amyloid nucleation score greater than or equal to 0.2 map to TRUE; values below map to FALSE.

Incoming: Could you verify whether the entry AWNGFDWYHARFCTMSTYIL shows amyloid nucleation score of no less than 0.2?
Outgoing: FALSE

Incoming: Could you verify whether the entry SYGRLVGTWL shows amyloid nucleation score of no less than 0.2?
Outgoing: FALSE

Incoming: Could you verify whether the entry LYLLSDNFR shows amyloid nucleation score of no less than 0.2?
Outgoing: TRUE

---

Assay: amyloid nucleation score (Sup35N fusion, yeast selection) (log enrichment); library NNK1; higher = more nucleation; inactive = no reads after selection
Field: class. Source value: amyloid nucleation score. Ranges: class 0 = under -0.1, class 1 = from -0.1 up to 0.9, class 2 = 0.9 and over

Recorded results for 10 substances are shown here.
DDNSMSDTHLL	class 2
YWTDGLFGDAT	class 1
VEVSWAAQST	class 1
RSGNVAQEMSMHPTWYEWS	class 2
RDMVKLHVHTLHCNDDILGL	class 0
TSPTYAYCYCLSTNRRQKCL	class 0
VEFYRYFGWCPNYLPQHQWL	class 0
FGHYFDTLKPYSRALWRVVS	class 0
SFESYEH	class 2
TSNCGTSLIDHSVRLLMLQR	class 0

Incoming: Given RICLLRRGVCTHNVDMVVMY , name the class its amyloid nucleation score places it in.
Outgoing: class 0

Incoming: Given QAFISFVVSFRWHLTCRS , name the class its amyloid nucleation score places it in.
Outgoing: class 2

Incoming: Given TNINSSTDKRLPTET , name the class its amyloid nucleation score places it in.
Outgoing: class 1

Incoming: Given RLLDFMFVGVLLACFGVQRW , name the class its amyloid nucleation score places it in.
Outgoing: class 2

Incoming: Given SSDSLYTYDMDWAWAGTP , name the class its amyloid nucleation score places it in.
Outgoing: class 1

Incoming: Given CISAVPCM , name the class its amyloid nucleation score places it in.
Outgoing: class 1

---

Experiment: amyloid nucleation score (Sup35N fusion, yeast selection) (log enrichment); library NNK2; higher = more nucleation; inactive = no reads after selection
Values of amyloid nucleation score greater than or equal to 0.7 map to MET; values below map to NOT MET.

IFRFARSNTYFRGESME	MET
TRGITCRLAYLQSLVNE	NOT MET
DYVSRKCFRDKWSERSSCRG	NOT MET

Incoming: Could you verify whether the entry SYDPSVMAVGSH shows amyloid nucleation score of no less than 0.7?
Outgoing: NOT MET

---

Experiment: amyloid nucleation score (Sup35N fusion, yeast selection) (log enrichment); library NNK3; higher = more nucleation; inactive = no reads after selection
Attribute measured: amyloid nucleation score

VDSDHIIHSTVLISVLGELD	inactive
SHGHDSVTRNRQGPCGIRIY	inactive
VFHRQERMLTPCT	inactive
NETPVSDAESGVLDFTSHEL	inactive
VYRCVFWDVCAWCFKFR	0.778

Incoming: Requested read-out: amyloid nucleation score. Entry: KDSYMSCYKPRYVLPRRIIQ
Outgoing: inactive

Incoming: Requested read-out: amyloid nucleation score. Entry: VYNGSFWRVNLVNF
Outgoing: 1.09

Incoming: Requested read-out: amyloid nucleation score. Entry: CTNKSSVYEFCYCVADMANV
Outgoing: inactive

Incoming: Requested read-out: amyloid nucleation score. Entry: IFACLHGAREVFLFQWLGFE
Outgoing: inactive

Incoming: Requested read-out: amyloid nucleation score. Entry: GSFGPIFQWNTIGALGFFG
Outgoing: 2.19

Incoming: Requested read-out: amyloid nucleation score. Entry: SYANIWVIHKLDGFMESSLL
Outgoing: inactive

Incoming: Requested read-out: amyloid nucleation score. Entry: TNTRASMFIFCVHSMSLLFY
Outgoing: inactive

Incoming: Requested read-out: amyloid nucleation score. Entry: RFSCEYVATLTLSGRQAVKH
Outgoing: 0.043

Incoming: Requested read-out: amyloid nucleation score. Entry: QDDAVFSLSI
Outgoing: inactive

Incoming: Requested read-out: amyloid nucleation score. Entry: DLVCTSLTRVAYRELIVWWF
Outgoing: inactive
